- Target: T1, human CD40L, membrane-bound on cells (human, UniProt P29965 1-261)
- T1 sequence: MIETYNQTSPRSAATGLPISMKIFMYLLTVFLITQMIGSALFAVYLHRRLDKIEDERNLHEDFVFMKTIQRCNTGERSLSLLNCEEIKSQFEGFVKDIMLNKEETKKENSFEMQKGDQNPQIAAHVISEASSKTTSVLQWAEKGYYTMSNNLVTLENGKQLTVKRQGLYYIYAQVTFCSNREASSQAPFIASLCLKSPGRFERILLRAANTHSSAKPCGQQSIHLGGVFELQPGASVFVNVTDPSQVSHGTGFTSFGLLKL
- Assay text: cell-based or functional assay
Recorded endpoint: T-B cell MLR EC50

Ask: Look up T-B cell MLR EC50 of 2h572-614-CT Long Fc (Fc fusion, not shown: linker and CT Long Fc (CT-L2)) EVQLLESGGGLVQPGGSLRLSCAASGFTFNWQLMGWVRQAPGKGLEWVSGIEGPGDVTYYADSVKGRFTISRDNSKNTLYLQMNSLRAEDTAVYYCVKVGKDAKSDYRGQGTLVTVSS and report it.
Reply: 0.283 nM

Ask: Look up T-B cell MLR EC50 of 2h572-634-CT Long Fc (Fc fusion, not shown: linker and CT Long Fc (CT-L2)) EVQLLESGGGLVQPGGSLRLSCAASGFTFNWELMGWARQAPGKGLEWVSGIEGPGDVTYYADSVKGRFTISRDNSKNTLYLQMNSLRAEDTAVYYCVKVGKDSRSDYRGQGTLVTVSS and report it.
Reply: 0.162 nM

Ask: Look up T-B cell MLR EC50 of 2h572-633-CT Long Fc (Fc fusion, not shown: linker and CT Long Fc (CT-L2)) EVQLLESGGGLVQPGGSLRLSCAASGFTFNWELMGWARQAPGKGLEWVSGIEGPGDVTYYADSVKGRFTISRDNSKNTLYLQMNSLRAEDTAVYYCVKVGKDAKSDYRGQGTLVTVSS and report it.
Reply: 0.174 nM

Ask: Look up T-B cell MLR EC50 of 2h572-608-CT Long Fc (Fc fusion, not shown: linker and CT Long Fc (CT-L2)) EVQLLESGGGLVQPGGSLRLSCAASGFTFNWELMGWARQAPGKGLEWVSGIEGPGDVTYYADSVKGRFTISRDNSKNTLYLQMNSLRAEDTAVYYCVKVGKESNSDYRGQGTLVTVSS and report it.
Reply: 0.468 nM
